Test system: DENV-3 strain H87
Experiment: Tetravalent RT-qPCR assay, serotype 3
Assay type: cell-based, Dengue virus
Conditions: RT-qPCR serotype 3 H87, Vero cells
# log10 EC50 values compiled below
measuredEndpoint: log10 EC50 (log10 of the value in nM)

# molecule, log10 EC50
records = [
    ("COc1cc(NC(C(=O)N2CCc3ccc(OC(F)(F)F)cc32)c2ccc(Cl)cc2)cc(OCC2(F)CC2C(=O)O)c1 (centres unmarked) [Compound 28AB]", 0.72),
    ("COc1cc(NC(C(=O)N2CCc3cc(OC)c(C(F)(F)F)cc32)c2ccc(Cl)cc2)cc(OCCC(C)C(=O)O)c1 (single isomer, unassigned) [Compound 20C]", 0.53),
    ("COc1cc(NC(C(=O)N2CCc3ccc(OC(F)(F)F)cc32)c2ccc(Cl)cc2)cc(OCC2CC2C(=O)O)c1 (centres unmarked) [Compound 6BB]", 0.20),
    ("COc1cc(NC(C(=O)N2CCc3ccc(OC(F)(F)F)cc32)c2ccc(Cl)cc2)cc(OCC2(F)CC2C(=O)O)c1 (centres unmarked) [Compound 29BB]", -0.41),
    ("COc1cc(NC(C(=O)N2CCc3ccc(OC(F)(F)F)cc32)c2ccc(Cl)cc2)cc(OCC2CC2C(=O)O)c1 (centres unmarked) [Compound 6AB]", -0.89),
]

---

# pEC50 values compiled below
Tested on: DENV-2 strain 16681
Assay: Tetravalent RT-qPCR assay, serotype 2
Assay type: cell-based, Dengue virus
Settings: RT-qPCR serotype 2 16681, Vero cells
pEC50: −log10 of the molar value.

# molecule, pEC50
data = [
    ("COc1cc(NC(C(=O)N2CCc3cc(OC)c(C(F)(F)F)cc32)c2ccc(Cl)cc2)cc(OCC2CC(C(=O)O)C2)c1 (stereo not shown) [Compound 25B]", 9.57),
    ("COc1cc(NC(C(=O)N2CCc3ccc(OC(F)(F)F)cc32)c2ccc(Cl)cc2)cc(OCC2CC2C(=O)O)c1 (stereo not shown) [Compound 6AB]", 10.77),
    ("COc1cc(NC(C(=O)N2CCc3ccc(OC(F)(F)F)cc32)c2ccc(Cl)cc2)cc(OCC2(F)CC2C(=O)O)c1 (stereo not shown) [Compound 28BB]", 10.00),
    ("COc1cc(NC(C(=O)N2CCc3ccc(OC(F)(F)F)cc32)c2ccc(Cl)cc2)cc(OCC2(F)CC2C(=O)O)c1 (stereo not shown) [Compound 29BB]", 10.60),
    ("COc1cc(NC(C(=O)N2CCc3ccc(OC(F)(F)F)cc32)c2ccc(Cl)cc2)cc(OCC2CC(C(=O)O)C2)c1 (stereo not shown) [Compound 11B]", 10.00),
    ("COc1cc(NC(C(=O)N2CCc3cc(OC)c(C(F)(F)F)cc32)c2ccc(Cl)cc2)cc(OCCC(C)C(=O)O)c1 (single isomer, unassigned) [Compound 20D]", 9.72),
    ("COc1cc(NC(C(=O)N2CCc3ccc(OC(F)(F)F)cc32)c2ccc(Cl)cc2OC)cc(OCC2CC2C(=O)O)c1 (stereo not shown) [Compound 19AB]", 10.85),
    ("COc1cc(NC(C(=O)N2CCc3ccc(OC(F)(F)F)cc32)c2ccc(Cl)cc2)cc(OCC2(F)CC2C(=O)O)c1 (stereo not shown) [Compound 29AB]", 9.60),
    ("COc1cc(NC(C(=O)N2CCc3ccc(OC(F)(F)F)cc32)c2ccc(Cl)cc2OC)cc(OCCC(C)C(=O)O)c1 (single isomer, unassigned) [Compound 17D]", 10.00),
    ("COc1cc(NC(C(=O)N2CCc3ccc(OC(F)(F)F)cc32)c2ccc(Cl)cc2)cc(OCC2(F)CC2C(=O)O)c1 (stereo not shown) [Compound 28AB]", 9.51),
]

---

Test: in vitro
Settings: African green monkey
# CC50 values compiled below
measuredEndpoint: CC50 (µM)

# compound, measuredEndpoint, readoutValue
data = [
    ("COc1cc(NC2CC(C(=O)O)C2)cc(NC(C(=O)N2CCc3ccc(OC(F)(F)F)cc32)c2ccc(Cl)cc2)c1 (single isomer, unassigned) [Compound 33A]", "CC50", 17),
    ("COc1cc(NC(C(=O)N2CCc3ccc(OC(F)(F)F)cc32)c2ccc(Cl)cc2)cc(OCCC(C)(C)C(=O)O)c1 (racemic) [Compound 2]", "CC50", 12),
    ("COc1cc(NC(C(=O)N2CCc3cc(OC)c(C(F)(F)F)cc32)c2ccc(Cl)cc2)cc(OC2CC(C(=O)O)C2)c1 (centres unmarked) [Compound 23A]", "CC50", 11),
    ("COc1cc(NC(C(=O)N2CCc3cc(F)c(OC(F)(F)F)cc32)c2ccc(Cl)cc2)cc(OCC2CC(C(=O)O)C2)c1 (centres unmarked) [Compound 30A]", "CC50", 13),
    ("COc1cc(NC(C(=O)N2CCc3ccc(OC(F)(F)F)cc32)c2ccc(Cl)cc2)cc(OCCC(=O)O)c1 (single isomer, unassigned) [Compound 12A]", "CC50", 10),
]

---

Tested on: Vero cells
Conditions: African green monkey
# CC50 values compiled below
measuredEndpoint: CC50 (µM)

# compound, readoutValue
records = [
    ("COc1cc(NC(C(=O)N2CCc3ccc(OC(F)(F)F)cc32)c2ccc(Cl)cc2)cc(OCC2(F)CC2C(=O)O)c1 (stereo not drawn) [Compound 28BB]", 12),
    ("COc1cc(NC(C(=O)N2CCc3cc(OC)c(C(F)(F)F)cc32)c2ccc(Cl)cc2)cc(OCC2CC2C(=O)O)c1 (stereo not drawn) [Compound 22BB]", 14),
    ("COc1cc(NC(C(=O)N2CCc3ccc(OC(F)(F)F)cc32)c2ccc(Cl)cc2OC)cc(OCCC(C)C(=O)O)c1 (single isomer, unassigned) [Compound 17D]", 14),
]

---

# CC50 values compiled below
Assay: in vitro
Details: African green monkey
measuredEndpoint: CC50 (µM)

# compound, readoutValue
data = [
    ("COc1cc(NC(C(=O)N2CCc3cc(OC)c(Cl)cc32)c2ccc(Cl)cc2)cc(OC2CC(C(=O)O)C2)c1 (stereo not drawn)", 15),
    ("COc1cc(NC(C(=O)N2CCc3ccc(OC(F)(F)F)cc32)c2ccc(Cl)cc2)cc(OCC23CC(C(=O)O)(C2)C3)c1 (racemic)", 9.8),
    ("COc1cc(NC(C(=O)N2CCc3ccc(OC(F)(F)F)cc32)c2ccc(Cl)cc2)cc(OCC2(CC(=O)O)CC2)c1 (racemic) [Compound 5]", 9.7),
]

---

# pEC50 values compiled below
System: DENV-3 strain H87
Experiment: Tetravalent RT-qPCR assay, serotype 3
Type: cell-based, Dengue virus
Settings: RT-qPCR serotype 3 H87, Vero cells
pEC50: −log10 of the molar value.

# molecule, pEC50
measured = [
    ("COc1cc(NC(C(=O)N2CCc3ccc(OC(F)(F)F)cc32)c2ccc(Cl)cc2OC)cc(OCCC(C)C(=O)O)c1 (single isomer, unassigned) [Compound 17D]", 8.57),
    ("COc1cc(NC(C(=O)N2CCc3ccc(OC(F)(F)F)cc32)c2ccc(Cl)cc2)cc(OC2CC(C(=O)O)C2)c1 (stereo not shown) [Compound 7B]", 8.74),
    ("COc1cc(NC(C(=O)N2CCc3cc(OC)c(C(F)(F)F)cc32)c2ccc(Cl)cc2)cc(OCC2CC(C(=O)O)C2)c1 (stereo not shown) [Compound 24B]", 7.85),
    ("COc1cc(NC(C(=O)N2CCc3ccc(OC(F)(F)F)cc32)c2ccc(Cl)cc2OC)cc(OCC2CC2C(=O)O)c1 (stereo not shown) [Compound 19BB]", 9.07),
]

---

# pEC50 values compiled below
Test system: DENV-4 strain H241
Experiment: Tetravalent RT-qPCR assay, serotype 4
Type: cell-based, Dengue virus
Details: RT-qPCR serotype 4 H241, Vero cells
pEC50: −log10 of the molar value.
measuredEndpoint: pEC50

# molecule, measuredEndpoint, readoutValue
data = [
    ("COc1cc(NC(C(=O)N2CCc3ccc(OC(F)(F)F)cc32)c2ccc(Cl)cc2)cc(OCC(C)CC(=O)O)c1 (single isomer, unassigned) [Compound 4D]", "pEC50", 7.59),
    ("COc1cc(NC(C(=O)N2CCc3ccc(OC(F)(F)F)cc32)c2ccc(Cl)cc2)cc(OCC2CC2C(=O)O)c1 (stereo not drawn) [Compound 6AB]", "pEC50", 8.54),
    ("COc1cc(NC2CC(C(=O)O)C2)cc(NC(C(=O)N2CCc3ccc(OC(F)(F)F)cc32)c2ccc(Cl)cc2)c1 (single isomer, unassigned) [Compound 33C]", "pEC50", 6.47),
]

---

# CC50 values compiled below
Test system: Vero cells
Settings: African green monkey
measuredEndpoint: CC50 (µM)

# compound, readoutValue
rows = [
    ("COc1cc(NC(C(=O)N2CCc3ccc(OC(F)(F)F)cc32)c2ccc(Cl)cc2)cc(OCCC(C)(C)C(=O)O)c1 (single isomer, unassigned)", 11),
    ("COc1cc(NC(C(=O)N2CCc3ccc(OC(F)(F)F)cc32)c2ccc(Cl)cc2)cc(OCC(C)CC(=O)O)c1 (single isomer, unassigned) [Compound 4B]", 10),
    ("COc1cc(NC(C(=O)N2CCc3ccc(OC(F)(F)F)cc32)c2ccc(Cl)cc2OC)cc(OCC2CC2C(=O)O)c1 (stereo not shown) [Compound 19BB]", 8.8),
    ("COc1cc(NC(C(=O)N2CCc3cc(OC)c(Cl)cc32)c2ccc(Cl)cc2)cc(OC2CC(C(=O)O)C2)c1 (single isomer, unassigned) [Compound 32A]", 13),
    ("COc1cc(NC(C(=O)N2CCc3ccc(OC(F)(F)F)cc32)c2ccc(Cl)cc2)cc(OCC(C)CC(=O)O)c1 (single isomer, unassigned) [Compound 4C]", 13),
    ("COc1cc(NC(C(=O)N2CCc3ccc(OC(F)(F)F)cc32)c2ccc(Cl)cc2)cc(OCC2(F)CC2C(=O)O)c1 (stereo not shown) [Compound 29BA]", 9.8),
    ("COc1cc(NC(C(=O)N2CCc3ccc(OC(F)(F)F)cc32)c2ccc(Cl)cc2)cc(OCC2CC(C(=O)O)C2)c1 (stereo not shown) [Compound 10B]", 11),
    ("COc1cc(NC(C(=O)N2CCc3cc(OC)c(C(F)(F)F)cc32)c2ccc(Cl)cc2)cc(OCC2CC(C(=O)O)C2)c1 (stereo not shown) [Compound 25A]", 12),
    ("COc1cc(NC(C(=O)N2CCc3cc(OC)c(C(F)(F)F)cc32)c2ccc(Cl)cc2)cc(OCC2CC2C(=O)O)c1 (stereo not shown) [Compound 22BA]", 12),
    ("COc1cc(NC(C(=O)N2CCc3cc(OC)c(C(F)(F)F)cc32)c2ccc(Cl)cc2)cc(OCCC(C)C(=O)O)c1 (single isomer, unassigned) [Compound 20D]", 13),
    ("COc1cc(NC(C(=O)N2CCc3cc(F)c(OC(F)(F)F)cc32)c2ccc(Cl)cc2)cc(OC2CC(C(=O)O)C2)c1 (single isomer, unassigned) [Compound 27A]", 11),
    ("COc1cc(NC(C(=O)N2CCc3cc(F)c(OC(F)(F)F)cc32)c2ccc(Cl)cc2)cc(OCC2CC(C(=O)O)C2)c1 (stereo not shown) [Compound 31A]", 12),
    ("COc1cc(NC(C(=O)N2CCc3ccc(OC(F)(F)F)cc32)c2ccc(Cl)cc2)cc(OCC2CC(C(=O)O)C2)c1 (stereo not shown) [Compound 11]", 12),
    ("COc1cc(NC(C(=O)N2CCc3cc(OC)c(C(F)(F)F)cc32)c2ccc(Cl)cc2)cc(OCC2CC2C(=O)O)c1 (stereo not shown) [Compound 22AB]", 12),
    ("COc1cc(NC(C(=O)N2CCc3ccc(OC(F)(F)F)cc32)c2ccc(Cl)cc2)cc(OC2CC(C(=O)O)C2)c1 (stereo not shown) [Compound 8A]", 12),
    ("COc1cc(NC(C(=O)N2CCc3ccc(OC(F)(F)F)cc32)c2ccc(Cl)cc2OC)cc(OCC2CC2C(=O)O)c1 (stereo not shown) [Compound 19AB]", 12),
    ("COc1cc(NC(C(=O)N2CCc3ccc(OC(F)(F)F)cc32)c2ccc(Cl)cc2)cc(OCC2CC(C(=O)O)C2)c1 (stereo not shown) [Compound 10A]", 10),
    ("COc1cc(NC(C(=O)N2CCc3ccc(OC(F)(F)F)cc32)c2ccc(Cl)cc2)cc(OCC2CC2C(=O)O)c1 (stereo not shown) [Compound 6AB]", 12),
    ("COc1cc(NC(C(=O)N2CCc3ccc(OC(F)(F)F)cc32)c2ccc(Cl)cc2)cc(OCC(C)CC(=O)O)c1 (single isomer, unassigned) [Compound 4D]", 13),
    ("COc1cc(NC(C(=O)N2CCc3cc(OC)c(C(F)(F)F)cc32)c2ccc(Cl)cc2)cc(OCC2CC(C(=O)O)C2)c1 (stereo not shown) [Compound 25B]", 13),
    ("COc1cc(NC(C(=O)N2CCc3ccc(OC(F)(F)F)cc32)c2ccc(Cl)cc2)cc(OCC2(F)CC2C(=O)O)c1 (stereo not shown) [Compound 28AA]", 11),
    ("COc1cc(NC(C(=O)N2CCc3ccc(OC(F)(F)F)cc32)c2ccc(Cl)cc2)cc(OCC2(CC(=O)O)CC2)c1 (single isomer, unassigned)", 10),
    ("COc1cc(NC(C(=O)N2CCc3ccc(OC(F)(F)F)cc32)c2ccc(Cl)cc2OC)cc(OCC2CC2C(=O)O)c1 (stereo not shown) [Compound 19BA]", 11),
    ("COc1cc(NC(C(=O)N2CCc3ccc(OC(F)(F)F)cc32)c2ccc(Cl)cc2)cc(OCC2(F)CC2C(=O)O)c1 (stereo not shown) [Compound 29AB]", 12),
    ("COc1cc(NC(C(=O)N2CCc3ccc(OC(F)(F)F)cc32)c2ccc(Cl)cc2)cc(OC2CC(C(=O)O)C2)c1 (stereo not shown) [Compound 7B]", 13),
]
